# credit: paper PMC10222328

- System tested: 5-LOX (Homo sapiens)
- Construct: purchased Abcam, UK
- Sequence (P09917 whole entry): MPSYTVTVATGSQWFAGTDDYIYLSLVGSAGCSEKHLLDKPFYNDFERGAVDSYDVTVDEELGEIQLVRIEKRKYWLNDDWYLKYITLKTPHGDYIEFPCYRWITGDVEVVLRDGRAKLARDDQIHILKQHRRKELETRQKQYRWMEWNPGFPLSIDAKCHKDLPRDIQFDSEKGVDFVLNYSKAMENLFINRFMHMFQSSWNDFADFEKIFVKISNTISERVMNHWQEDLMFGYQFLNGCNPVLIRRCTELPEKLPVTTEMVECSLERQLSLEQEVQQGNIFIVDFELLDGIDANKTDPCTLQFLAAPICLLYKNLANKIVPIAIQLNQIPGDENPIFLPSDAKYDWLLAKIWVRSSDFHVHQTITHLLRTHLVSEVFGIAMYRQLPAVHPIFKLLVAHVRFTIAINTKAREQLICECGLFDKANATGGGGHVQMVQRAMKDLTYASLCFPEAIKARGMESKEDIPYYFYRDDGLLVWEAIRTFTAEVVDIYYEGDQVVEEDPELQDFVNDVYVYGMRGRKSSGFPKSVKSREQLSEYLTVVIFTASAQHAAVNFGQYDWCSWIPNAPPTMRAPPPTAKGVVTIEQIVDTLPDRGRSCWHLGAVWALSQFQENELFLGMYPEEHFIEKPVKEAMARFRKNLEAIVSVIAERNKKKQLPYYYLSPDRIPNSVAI
- Test protocol: Fluorometric 5-LOX inhibitor screening kit
- Format: biochemical
- Measurement parameters: at 10 µM; mean ± standard error of two measurements; read-out: 5-LOX Percent of Inhibition
Measured endpoint: inhibition at 10 µM
State the value with its unit after it.

Solved cases (4 shown):
COC(=O)[C@H](Cc1cn(C)c2ccccc12)NC(=S)NC(=O)[C@@H](C)c1ccc2cc(OC)ccc2c1 | 20.7%
COc1ccc2cc([C@H](C)C(=O)NC(=S)Nc3ccc(C(C)=O)cc3)ccc2c1 | 46.2%
COc1ccc(NC(=S)NC(=O)[C@@H](C)c2ccc3cc(OC)ccc3c2)cc1 | 25.1%
COc1ccc2cc([C@H](C)C(=O)NC(=S)Nc3ccc(F)cc3)ccc2c1 | 34.2%

The following compounds each have a reported value; give each one's inhibition at 10 µM.
1. CC(c1cc2ccccc2s1)N(O)C(N)=O (centres unmarked) [Zileuton, reference compound]
2. CCOC(=O)C(Cc1ccccc1)NC(=S)NC(=O)C(C)c1ccc2cc(OC)ccc2c1 (centres unmarked)
3. COc1cccc(NC(=S)NC(=O)[C@@H](C)c2ccc3cc(OC)ccc3c2)c1
4. CCOc1ccc(NC(=S)NC(=O)[C@@H](C)c2ccc3cc(OC)ccc3c2)cc1

### Response
1: 64.8%; 2: 23.6%; 3: 77.2%; 4: 47%

----------
- Test protocol: Acute oral toxicity evaluation in rats
- Assay type: in vivo, Wistar albino rats
- Measurement parameters: single oral dose 10 mg/kg, after 14 days, (absolute organ weight × 100%)/body weight
So I've got a bunch of compounds here, and I need their Relative organ weight, kidney values.
One number for each entry.

Solved cases (6 shown):
COc1ccc(NC(=S)NC(=O)[C@@H](C)c2ccc3cc(OC)ccc3c2)cc1 | 0.34
CCOc1ccc(NC(=S)NC(=O)[C@@H](C)c2ccc3cc(OC)ccc3c2)cc1 | 0.32
COc1cccc(NC(=S)NC(=O)[C@@H](C)c2ccc3cc(OC)ccc3c2)c1 | 0.33
COC(=O)[C@H](Cc1cn(C)c2ccccc12)NC(=S)NC(=O)[C@@H](C)c1ccc2cc(OC)ccc2c1 | 0.29
COc1ccc2cc([C@H](C)C(=O)NC(=S)Nc3ccc(F)cc3)ccc2c1 | 0.31
COc1ccc2cc([C@H](C)C(=O)NC(=S)Nc3ccc(C(C)=O)cc3)ccc2c1 | 0.30

With those in mind, consider the next compound.
Input CCOC(=O)C(Cc1ccccc1)NC(=S)NC(=O)C(C)c1ccc2cc(OC)ccc2c1 (stereo not shown) . Output Relative organ weight, kidney: 0.35

----------
So I've got a bunch of compounds here, and I need their inhibition in vivo at 10 mg/kg values.
- Test system: carrageenan-induced rat paw edema
- Test protocol: Carrageenan-induced rat paw edema model
- Format: in vivo, Wistar albino rats
- Measurement parameters: Rattus norvegicus, po, 2 h, 10.0 mg/kg per os, 2 h after carrageenan

COc1cccc(NC(=S)NC(=O)[C@@H](C)c2ccc3cc(OC)ccc3c2)c1 | 32.6%
CCOC(=O)C(Cc1ccccc1)NC(=S)NC(=O)C(C)c1ccc2cc(OC)ccc2c1 (centres unmarked) | 14.2%
COc1ccc2cc([C@H](C)C(=O)O)ccc2c1 [Naproxen, reference compound] | 43.3%
COC(=O)[C@H](Cc1cn(C)c2ccccc12)NC(=S)NC(=O)[C@@H](C)c1ccc2cc(OC)ccc2c1 | 21.8%
CCOc1ccc(NC(=S)NC(=O)[C@@H](C)c2ccc3cc(OC)ccc3c2)cc1 | 12.6%

The following compounds each have a reported value; give each one's inhibition in vivo at 10 mg/kg.
1. COc1ccc2cc([C@H](C)C(=O)NC(=S)Nc3ccc(C(C)=O)cc3)ccc2c1
2. COc1ccc(NC(=S)NC(=O)[C@@H](C)c2ccc3cc(OC)ccc3c2)cc1
3. COc1ccc2cc([C@H](C)C(=O)NC(=S)Nc3ccc(F)cc3)ccc2c1

### Response
1: 37.9%; 2: 29.5%; 3: 1.92%

----------
- System: carrageenan-induced rat paw edema
- Test protocol: Carrageenan-induced rat paw edema model
- Type: in vivo, Wistar albino rats
- Measurement parameters: 2.5 mg/kg per os, 2 h after carrageenan, mean ± SD
Measured endpoint: Rat paw thickness (mm)
One number for each entry, in mm.

Solved cases (3 shown):
COc1ccc(NC(=S)NC(=O)[C@@H](C)c2ccc3cc(OC)ccc3c2)cc1 [Compound 2] | 6.07
CCOC(=O)C(Cc1ccccc1)NC(=S)NC(=O)C(C)c1ccc2cc(OC)ccc2c1 (stereo not shown) [Compound 6] | 5.87
CCOc1ccc(NC(=S)NC(=O)[C@@H](C)c2ccc3cc(OC)ccc3c2)cc1 [Compound 3] | 6.0

With those in mind, consider the next molecule.
Input COc1ccc2cc([C@H](C)C(=O)O)ccc2c1 [Naproxen, reference compound] . Output Rat paw thickness: 5.87

----------
So I've got a bunch of molecules here, and I need their Relative organ weight, heart values.
- Test protocol: Acute oral toxicity evaluation in rats
- Format: in vivo, Wistar albino rats
- Measurement parameters: single oral dose 10 mg/kg, after 14 days, (absolute organ weight × 100%)/body weight
One number for each entry.

Solved cases (2 shown):
COC(=O)[C@H](Cc1cn(C)c2ccccc12)NC(=S)NC(=O)[C@@H](C)c1ccc2cc(OC)ccc2c1 | 0.33
COc1ccc2cc([C@H](C)C(=O)NC(=S)Nc3ccc(F)cc3)ccc2c1 | 0.32

With those in mind, consider the next molecule.
Input COc1ccc(NC(=S)NC(=O)[C@@H](C)c2ccc3cc(OC)ccc3c2)cc1 . Output Relative organ weight, heart: 0.33
